system: LOVO cells; assay: LOVO CTG proliferation assay (120 h) (CRC, G13D); assay type: cell-based; settings: Homo sapiens, CTG 120 h
Each item that follows carries a reported pIC50.
Scale: negative log10 of molar concentration, which is what pIC50 denotes.

Look over these answered cases.
In [3]: df
Out[3]:
                                   compound  experimental_result
0  C[C@H](Oc1cc(-c2cnsc2)nc(-c2onc3c2CCC[C@@]32CCCc3sc(N)c(C#N)c32)n1)[C@@H]1CCCN1C                 6.58
1  C[C@@H]1CN(c2nc(-c3noc4c3CCC[C@@]43CCCc4sc(N)c(C#N)c43)nc(O[C@@H](C)[C@@H]3C[C@@H](F)CN3C)c2F)CC2(CC2)N1                 7.08
2  C[C@H](Oc1cc(-n2ccc(C(=O)O)n2)nc(-c2noc3c2CCC[C@@]32CCCc3sc(N)c(C#N)c32)n1)[C@@H]1CCCN1C                 5.13

Find the recorded pIC50 belonging to CO[C@@H]1C[C@@H]([C@H](C)Oc2cc(-c3cnn(C)n3)nc(-c3noc4c3CCC[C@@]43CCCc4sc(N)c(C#N)c43)n2)N(C)C1 and report it.
5.63

Entry under review: C[C@H](Oc1cc(N2CCNC2=O)nc(-c2noc3c2CCC[C@@]32CCCc3sc(N)c(C#N)c32)n1)[C@@H]1CCCN1C . Reported pIC50?
7.02

// pIC50 lookup, key: C[C@H](O)Cn1ncc(-c2cc(O[C@@H](C)[C@@H]3CCCN3C)nc(-c3noc4c3CCC[C@@]43CCCc4sc(N)c(C#N)c43)n2)n1
5.49

----------
Recorded measurements of IC50, one per entry
system: AsPC-1 cells; experiment: AsPC-1 CTG proliferation assay (120 h) (pancreatic cancer, G12D); format: cell-based; conditions: Homo sapiens, ASPC1
Expressed in µM, but write only the number.

Consider the reported IC50 for these molecules:
compound	readout-type	experimental-result
C[C@H](Oc1cc(N2C[C@@H](N(C)C)[C@@H](O)C2)nc(-c2noc3c2CCC[C@@]32CCCc3sc(N)c(C#N)c32)n1)[C@@H]1CCCN1C	IC50	0.811
C[C@H](Oc1cc(-n2ccnc2)nc(-c2noc3c2CCC[C@@]32CCCc3sc(N)c(C#N)c32)n1)[C@@H]1CCCN1C	IC50	1.73

We next turn to a different molecule, shown below.
Which IC50 is listed for C[C@@H]1CN(c2cc(O[C@@H](C)[C@@H]3CCCN3C)nc(-c3noc4c3CCC[C@@]43CCCc4sc(N)c(C#N)c43)n2)C[C@H](C)N1 ?
0.99

----------
assay: Solubility measurement (DMSO solution method), McIlvaine buffer pH 4.5 or 6.8; assay type: physicochemical; details: aqueous buffer, kinetic from dmso stock; McIlvaine buffer pH 4.5; DMSO stock diluted to 250 μM; 24 h shaking at ambient temperature; read-out: solubility pH 4.5
The entries below are paired with their reported solubility at 24 h.

Worked cases, solubility at 24 h given:
In [3]: df
Out[3]:
                                   compound  experimental_result
0  C[C@H](Oc1cc(-c2cc[nH]n2)nc(-c2noc3c2CCC[C@@]32CCCc3sc(N)c(C#N)c32)n1)[C@@H]1CCCN1C [II-71]          > 112 µg/mL
1  C[C@H](Oc1cc(N2C[C@@H](N(C)C)[C@@H](F)C2)nc(-c2noc3c2CCC[C@@]32CCCc3sc(N)c(C#N)c32)n1)[C@@H]1CCCN1C [II-11]          > 150 µg/mL
2  CC(C)[C@@H]1CN(c2cc(O[C@@H](C)[C@@H]3CCCN3C)nc(-c3noc4c3CCC[C@@]43CCCc4sc(N)c(C#N)c43)n2)CCN1 [II-166]          > 152 µg/mL
3  C[C@H](Oc1cc(N2CCNC3(CCC3)C2)nc(-c2onc3c2CCC[C@@]32CCCc3sc(N)c(C#N)c32)n1)[C@@H]1CCCN1C [I-3]          > 173 µg/mL
4  CO[C@@H]1C[C@@H]([C@H](C)Oc2cc(N3CCN(C)C4(COC4)C3)nc(-c3noc4c3CCC[C@@]43CCCc4sc(N)c(C#N)c43)n2)N(C)C1 [II-153]          > 135 µg/mL

Next:
Give its solubility at 24 h value. Item: C[C@H](Oc1cc(N2C[C@@H](N(C)C)[C@@H](O)C2)nc(-c2noc3c2CCC[C@@]32CCCc3sc(N)c(C#N)c32)n1)[C@@H]1CCCN1C [II-10]
> 143 µg/mL

----------
biological target: CYP3A4 (Homo sapiens (Human)); test: Mechanism based inhibition of CYP3A4 assay (MBI 3A4); type: in vitro ADME; details: hydroxy-midazolam formation after 30 min vs 0 min preincubation, 25 uM, human liver microsomes
Sequence (P08684 whole entry): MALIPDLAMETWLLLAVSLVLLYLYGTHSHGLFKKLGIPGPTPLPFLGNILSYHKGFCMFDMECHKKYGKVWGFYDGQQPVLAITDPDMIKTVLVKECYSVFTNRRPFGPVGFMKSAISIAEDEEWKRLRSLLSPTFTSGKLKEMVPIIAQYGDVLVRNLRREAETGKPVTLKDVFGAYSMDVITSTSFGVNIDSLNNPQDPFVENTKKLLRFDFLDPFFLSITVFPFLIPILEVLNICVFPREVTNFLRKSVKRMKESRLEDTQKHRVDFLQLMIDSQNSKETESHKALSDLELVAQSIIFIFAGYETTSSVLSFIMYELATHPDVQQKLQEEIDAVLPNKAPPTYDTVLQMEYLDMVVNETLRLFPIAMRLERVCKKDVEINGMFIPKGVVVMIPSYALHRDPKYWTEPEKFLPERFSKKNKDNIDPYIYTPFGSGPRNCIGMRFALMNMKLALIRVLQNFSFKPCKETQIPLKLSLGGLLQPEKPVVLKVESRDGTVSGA
Here, each record is paired with measured MBI 3A4 data.
Note: unit % is implicit; provide only the numeric part.

Worked examples follow.
In [3]: df
Out[3]:
                                   compound  readout_type  experimental_result
0  CO[C@@H]1C[C@@H]([C@H](C)Oc2cc(-c3ccn(C4COC4)n3)nc(-c3noc4c3CCC[C@@]43CCCc4sc(N)c(C#N)c43)n2)N(C)C1       MBI 3A4                   58
1  C[C@H](Oc1cc(-n2ccnc2)nc(-c2noc3c2CCC[C@@]32CCCc3sc(N)c(C#N)c32)n1)[C@@H]1C[C@@H](F)CN1C       MBI 3A4                   71
2  C[C@H](Oc1cc(-c2ccccn2)nc(-c2noc3c2CCC[C@@]32CCCc3sc(N)c(C#N)c32)n1)[C@@H]1CCCN1C       MBI 3A4                   52

Okay, now this compound:
Write down the reported MBI 3A4 of C[C@H](Oc1cc(-c2cn[nH]c2)nc(-c2noc3c2CCC[C@@]32CCCc3sc(N)c(C#N)c32)n1)[C@@H]1CCCN1C , test system: CYP3A4 (Homo sapiens (Human)).
64

----------
test: Plasma protein binding assay (PPB), equilibrium dialysis, 10% FCS in PBS; format: in vitro ADME; conditions: bovine, read-out: PPB 10% FCS (% fu)
Below is a list of entries, each paired with its recorded fraction unbound value.
Lab note: record just the number, no unit beside it.

// below: answered compounds
In [3]: df
Out[3]:
                                   compound  experimental_result
0  CO[C@@H]1C[C@@H]([C@H](C)Oc2cc(-c3cnn(C)n3)nc(-c3noc4c3CCC[C@@]43CCCc4sc(N)c(C#N)c43)n2)N(C)C1                 0.18
1  C[C@H](Oc1cc([C@@H]2CCOC2)nc(-c2noc3c2CCC[C@@]32CCCc3sc(N)c(C#N)c32)n1)[C@@H]1CCCN1C                 0.31
2  Cc1cn(C)nc1-c1cc(O[C@@H](C)[C@@H]2CCCN2C)nc(-c2noc3c2CCC[C@@]32CCCc3sc(N)c(C#N)c32)n1                 0.09
3  C[C@H](Oc1cc(-c2ccn(C3COC3)n2)nc(-c2noc3c2CCC[C@@]32CCCc3sc(N)c(C#N)c32)n1)[C@@H]1CCCN1C                 0.18
4  C[C@H](Oc1cc(-n2ccc(C(=O)N3CCCC3)n2)nc(-c2noc3c2CCC[C@@]32CCCc3sc(N)c(C#N)c32)n1)[C@@H]1CCCN1C                 0.04

Any idea what its fraction unbound is? The compound is CC(=O)N1CCN(c2cc(O[C@@H](C)[C@@H]3CCCN3C)nc(-c3noc4c3CCC[C@@]43CCCc4sc(N)c(C#N)c43)n2)CC12CC2
0.46

----------
assay: Metabolic (microsomal) stability assay, human liver microsomes (HLM); format: in vitro ADME; conditions: predicted clearance as percent of liver blood flow, 1 μM
readout-type: HLM QH

                                   compound  experimental_result
0  C[C@H](Oc1cc(N2CCCC3(COC3)C2)nc(-c2noc3c2CCC[C@@]32CCCc3sc(N)c(C#N)c32)n1)[C@@H]1CCCN1C                  41%
1  COc1c(O[C@@H](C)[C@@H]2CCCN2C)nc(-c2noc3c2CCC[C@@]32CCCc3sc(N)c(C#N)c32)nc1-n1ccc(C(N)=O)n1                  40%
2  C[C@H]1CN(C)CCCN1c1cc(N2CCN(C)CC2)nc(-c2noc3c2CCC[C@@]32CCCc3sc(N)c(C#N)c32)n1                 <24%
3  C[C@H](Oc1cc(Cl)nc(-c2onc3c2CCC[C@@]32CCCc3sc(N)c(C#N)c32)n1)[C@@H]1CCCN1C                  79%
4  C[C@H](Oc1cc(N2CCNC[C@]23CCOC3)nc(-c2noc3c2CCC[C@@]32CCCc3sc(N)c(C#N)c32)n1)[C@@H]1CCCN1C                  52%

For the compound shown here, C[C@H](Oc1cc(-n2ccc(C(N)=O)n2)nc(-c2noc3c2CCC[C@@]32CCCc3sc(N)c(C#N)c32)n1)[C@@H]1CCCN1C , give the reported HLM QH.
<24%

Look up HLM QH: C[C@H](Oc1cc(-n2ccc(C(=O)O)n2)nc(-c2noc3c2CCC[C@@]32CCCc3sc(N)c(C#N)c32)n1)[C@@H]1CCCN1C
<24%

Record request: HLM QH value, item C[C@H](Oc1cc(-c2cccc(C(N)=O)c2)nc(-c2noc3c2CCC[C@@]32CCCc3sc(N)c(C#N)c32)n1)[C@@H]1CCCN1C
<24%

Return reported HLM QH; argument: C[C@H](Oc1cc(-n2cc(C3CC3)nn2)nc(-c2noc3c2CCC[C@@]32CCCc3sc(N)c(C#N)c32)n1)[C@@H]1CCCN1C
25%

I have this compound here, C[C@H](Oc1cc(N2CCN(CCO)CC2)nc(-c2noc3c2CCC[C@@]32CCCc3sc(N)c(C#N)c32)n1)[C@@H]1CCCN1C , and I need its recorded HLM QH.
<24%

Recorded HLM QH of C[C@H](Oc1cc(-c2ccc(N)nc2)nc(-c2noc3c2CCC[C@@]32CCCc3sc(N)c(C#N)c32)n1)[C@@H]1CCCN1C , please.
31%

The reported numbers originate from patent US20240174690A1.
